# testedSystem: MeCP2-TBL1 interaction (MeCP2-SmBiT / TBL1-LgBiT) (Mus musculus, UniProt Q9QXE7)
# Construct: expressed in transfected cells; crude lysate used as a cell-free assay
# Sequence (Q9QXE7 166-527): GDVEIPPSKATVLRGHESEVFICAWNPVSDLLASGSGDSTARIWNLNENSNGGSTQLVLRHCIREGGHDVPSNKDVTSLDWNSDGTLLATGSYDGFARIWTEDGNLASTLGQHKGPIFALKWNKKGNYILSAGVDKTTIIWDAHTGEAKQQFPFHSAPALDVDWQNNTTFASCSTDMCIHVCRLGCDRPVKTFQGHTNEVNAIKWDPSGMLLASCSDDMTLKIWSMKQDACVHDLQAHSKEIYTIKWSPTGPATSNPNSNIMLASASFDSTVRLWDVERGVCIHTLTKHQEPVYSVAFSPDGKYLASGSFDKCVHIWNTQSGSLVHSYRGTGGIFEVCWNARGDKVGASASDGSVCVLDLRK
# experimentSummary: MeCP2-TBL1 NanoLuc luciferase complementation assay (cell-free, extracts of transfected HEK293 cells);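 note: each compound tested at 20 µM final concentration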
# Type: binding, human
# testParameters: primary screen of Asinex library, single well per compound
parameterMeasured: Inhibition percent

> print(dat)
                                   compound   parametermeasured  datavalue
1  COCCNC(=O)CN1CCCC1c1nc(C)c2c(n1)N(Cc1ccccc1)C(=O)CC2 (stereo not shown)  Inhibition percent      -1.63
2  COc1cccc(Cc2cccc(C3CCCN(Cc4ccncc4)C3)n2)c1 (stereo not shown)  Inhibition percent      -4.87
3  C[C@]12C[C@@H](Cc3ccccc3)N(C(=O)c3ccc(OCCN4CCCCC4)cc3)[C@H]1CCCC(=O)N2  Inhibition percent      -1.82
4  C[C@]12C[C@@H](Cc3ccccc3)N(C(=O)c3cccc(Cn4cccn4)c3)[C@H]1CCCC(=O)N2  Inhibition percent      -1.63
5  O=C(c1ccccc1Cn1ccnc1)N1CCOCC2(C1)CN(c1ccc(Cl)cc1)C(=O)O2 (stereo not shown)  Inhibition percent       1.12
6  CC(=O)N[C@H]1C[C@@H](C(=O)N(C)C)N(C(=O)CCn2cnc3ccccc32)[C@H]1c1ccccc1  Inhibition percent       5.65
7  C[C@@]12C[C@H]3[C@@H](Cc4ccccc4)N[C@@H]1CCC[C@@H]2N3C(=O)c1cccc(Cc2ccccc2F)n1  Inhibition percent      -2.99

The measured values listed here are drawn from paper PMC9995496.
